Data origin: patent US20230192896A1

- MEASURED ON: T1, free FIXa (activated Factor IX) (human, UniProt P00740 47-191; P00740 227-461)
- T1 construct: BLI antigen bought from Haematologic Technologies (HCIXA-0050); also called factor IXa
- TEST PROTOCOL: BLI; class meaning: paragraph 914
QUANTITY NAME: binding result

| BINDER | MEASURED VALUE |
| --- | --- |
| BIIB-9-408 (antibody, V domains shown, IgG) VH: QVQLVQSGAEVKKPGASVKVSCKASGYTFTSYYMHWVRQAPGQGLEWMGIINPSGGSTTYAQKFQGRVTMTRDTSTSTVYMELSSLRSEDTAVYYCARDPGAYDDWSGYDDYGMDVWGQGTTVTVSS VL: EIVLTQSPATLSLSPGERATLSCRASQSVSSYLAWYQQKPGQAPRLLIYDASNRATGIPARFSGSGSGTDFTLTISSLEPEDFAVYYCQQAFVWPPITFGGGTKVEIK | binds |
| BIIB-9-1283 (antibody, V domains shown, IgG) VH: QVQLVQSGAEVKKPGASVKVSCKASGYTFTSYYMVWVRQAPGQGLEWMGIINPSGGSTSYAQKFQGRVTMTRDTSTSTVYMELSSLRSEDTAVYYCARVPTYRYSYLAFDIWGQGTMVTVSS VL: DIQMTQSPSSVSASVGDRVTITCRASQGISSWLAWYQQKPGKAPKLLIYAASSLQSGVPSRFSGSGSGTDFTLTISSLQPEDFATYYCQQASSFPPTFGGGTKVEIK | binds |
| BIIB-9-628 (antibody, V domains shown, IgG) VH: QVQLVQSGAEVKKPGASVKVSCKASGYTFTSYYMHWVRQAPGQGLEWMGIINPSGGSTSYAQKFQGRVTMTRDTSTSTVYMELSSLRSEDTAVYYCAREPIAYGATLDLWGRGTLVTVSS VL: EIVLTQSPGTLSLSPGERATLSCRASQSVSSDYLAWYQQKPGQAPRLLIYGASSRATGIPDRFSGSGSGTDFTLTISRLEPEDFAVYYCQQYVVFPFTFGGGTKVEIK | binds |
